# Target Entity: T1, human CD22-ECD-His protein (human, UniProt P20273 20-687)
# T1 construct: Made in house in HEK293E; also called hCD22-ECD-His; recombinant human CD22-ECD His protein; not shown: His tag
# T1 sequence: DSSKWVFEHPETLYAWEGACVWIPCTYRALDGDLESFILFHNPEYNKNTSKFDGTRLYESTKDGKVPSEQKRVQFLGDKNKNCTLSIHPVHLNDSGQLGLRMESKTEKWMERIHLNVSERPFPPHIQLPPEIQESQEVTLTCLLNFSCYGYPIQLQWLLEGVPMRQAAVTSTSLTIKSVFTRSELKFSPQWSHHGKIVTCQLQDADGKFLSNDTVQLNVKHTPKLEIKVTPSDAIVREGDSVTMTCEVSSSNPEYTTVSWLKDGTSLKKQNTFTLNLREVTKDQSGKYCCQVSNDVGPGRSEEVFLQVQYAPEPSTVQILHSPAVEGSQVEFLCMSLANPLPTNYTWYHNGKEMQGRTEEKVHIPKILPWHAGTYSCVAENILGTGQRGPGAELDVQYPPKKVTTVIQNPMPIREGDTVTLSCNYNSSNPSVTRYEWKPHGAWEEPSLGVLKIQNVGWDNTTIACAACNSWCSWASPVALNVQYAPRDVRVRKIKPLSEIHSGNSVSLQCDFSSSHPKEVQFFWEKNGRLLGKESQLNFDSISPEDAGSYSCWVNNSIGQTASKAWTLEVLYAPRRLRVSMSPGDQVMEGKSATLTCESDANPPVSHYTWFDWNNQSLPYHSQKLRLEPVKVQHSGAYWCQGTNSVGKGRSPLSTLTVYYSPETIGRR
# Method Summary: ELISA, Ab 0.01 nM
Task for the reader: assign each of the following binders its reported OD450.
Numbers only, in OD450.

F2.151.13 (antibody, human IgG1, lambda, V domains shown, Human-murine chimeric IgG1, lambda) VH: QVHLQQPGTELMKPGASVKLSCKATGYTFRDYWLEWVKQRPGHGLEWIGEILPGSGNAYYNEKFKGKATFTADTSSNTAYMQLSSLTTEDSAIYYCARVYSNWYFDAWGKGTTVTVSS VL: QAVVTQESALTTSPGETVTLTCRSSTGAVTTSNYANWVQEKPDHLFTGLIGGTNNQAPGVPARFSGSLIGDKAALTISGAQTEDEAIYFCALWFSNHWVFGGGTKLTVLG ... 2.1

For the 2 binders below, give their OD450 values.
1. F1.161.7 (antibody, human IgG1, kappa, V domains shown, Human-murine chimeric IgG1, kappa) VH: QVQLQQPGAELVKPGASVKMSCKASGYTFTSYWISWVKQRPGQGLEWIGDIYPGTGSSNYNEKFKSKATLTVDTSSSTAYMQLSSLTSEDSAVYYCARLKFEGIGYWGQGTTLTVSS VL: QIVLTQSPAIMSASLGEEITLTCSASSSVSYMHWFQQKSGTSPKLLIYSISNLASGVPSRFSGSGSGTFYSLTISSVEAEDAADYYCHQWSSYPWTFGGGTKLEIKR
2. F1.267.9 (antibody, human IgG1, kappa, V domains shown, Human-murine chimeric IgG1, kappa) VH: EVQLQQSGPVLVKPGASVKMSCKASGYTFTDFYMNWAKQSHGKSLEWVGVINPYNGGINYNQKFKGKATLTVDKSSSTAYMEFNSLTSEDSAVYYCARRMEYHAMDYWGQGTSVTVSS VL: DIVLTQSPASLAVSLGQRATISCRASESVDNYGFDFIHWYQQKPGQPPKLLIYRASNLESGIPARFSGSGSRPDFTLTINPVETDDVATYYCQQSIKDPWTFGGGTKLEIKR

1. 2.34
2. 1.47
